# test target: HLA-A*26:01
# assay comment: IEDB peptide-MHC binding, purified MHC/direct/fluorescence; filed as Kd, often an IC50 or EC50 that approximates it; bounds were set here for any values at or beyond the usual limits of such assays
# reported conditions: source organism: Haemophilus influenzae
pKd: −log10 of the molar value.

[
  {
    "sequence": "VYFSPWFFL",
    "test target": "HLA-A*26:01",
    "pKd": "≤ 4.70"
  }
]

----------
# test target: HLA-B*53:01
# assay comment: IEDB peptide-MHC binding, purified MHC/competitive/radioactivity; filed as Kd, often an IC50 or EC50 that approximates it; bounds were set here for any values at or beyond the usual limits of such assays
# reported conditions: source organism: Mammarenavirus lassaense
pKd: −log10 of the molar value.

[
  {
    "sequence": "FPAIFSAEVL",
    "pKd": 6.48
  },
  {
    "sequence": "CPFLFLIVL",
    "pKd": 4.85
  },
  {
    "sequence": "FPYVMGDVEL",
    "pKd": 7.33
  },
  {
    "sequence": "TPVEIVVDM",
    "pKd": 6.80
  }
]

----------
# test target: HLA-A*03:01
# assay comment: IEDB peptide-MHC binding, purified MHC/direct/fluorescence; filed as Kd, often an IC50 or EC50 that approximates it; bounds were set here for any values at or beyond the usual limits of such assays
# reported conditions: source organism: Coxiella burnetii

[
  {
    "sequence": "SYGNANVSF",
    "Kd": "≥ 20 µM"
  }
]

----------
# test target: HLA-A*02:03
# assay comment: IEDB peptide-MHC binding, purified MHC/direct/fluorescence; filed as Kd, often an IC50 or EC50 that approximates it; bounds were set here for any values at or beyond the usual limits of such assays
# reported conditions: source organism: Salmonella enterica subsp. enterica serovar Virchow
quantity: Kd

[
  {
    "sequence": "CTWPEASRY",
    "quantity": "Kd",
    "readout value": "≥ 20 µM"
  }
]

----------
Measured pKd accompanies every entry in the list below.
# test target: HLA-B*08:01
# assay comment: IEDB peptide-MHC binding, purified MHC/direct/fluorescence; filed as Kd, often an IC50 or EC50 that approximates it; bounds were set here for any values at or beyond the usual limits of such assays
# reported conditions: source organism: Vibrio cholerae
pKd: −log10 of the molar value.

[
  {
    "sequence": "AYLLQHLDL",
    "test target": "HLA-B*08:01",
    "pKd": "≤ 4.70"
  },
  {
    "sequence": "FPRSAERAG",
    "test target": "HLA-B*08:01",
    "pKd": "≤ 4.70"
  },
  {
    "sequence": "EIFPNIKIY",
    "test target": "HLA-B*08:01",
    "pKd": "≤ 4.70"
  }
]

----------
# test target: HLA-A*68:02
# assay comment: IEDB peptide-MHC binding, purified MHC/competitive/fluorescence; filed as Kd, often an IC50 or EC50 that approximates it; bounds were set here for any values at or beyond the usual limits of such assays
# reported conditions: source organism: Vibrio antiquarius
pKd: −log10 of the molar value.
quantity: pKd

[
  {
    "sequence": "SLTIPSFYT",
    "quantity": "pKd",
    "readout value": "≤ 4.70"
  }
]

----------
# test target: HLA-A*69:01
# assay comment: IEDB peptide-MHC binding, purified MHC/direct/fluorescence; filed as Kd, often an IC50 or EC50 that approximates it; bounds were set here for any values at or beyond the usual limits of such assays
# reported conditions: source organism: Influenza A virus (A/equine/Massachussetts/213/2003(H3N8))
pKd: −log10 of the molar value.
quantity: pKd

[
  {
    "sequence": "ILKGKFQTA",
    "quantity": "pKd",
    "readout value": "≤ 4.70"
  }
]

----------
# test target: HLA-A*02:16
# assay comment: IEDB peptide-MHC binding, purified MHC/direct/fluorescence; filed as Kd, often an IC50 or EC50 that approximates it; bounds were set here for any values at or beyond the usual limits of such assays
# reported conditions: source organism: Salmonella enterica subsp. enterica serovar Virchow

[
  {
    "sequence": "CTWPEASRY",
    "Kd": "≥ 20 µM"
  }
]

----------
# test target: HLA-B*53:01
# assay comment: IEDB peptide-MHC binding, purified MHC/competitive/radioactivity; filed as Kd, often an IC50 or EC50 that approximates it; bounds were set here for any values at or beyond the usual limits of such assays
# reported conditions: source organism: Dengue virus 3 Martinique/1243/1999
Label key: MET means Kd under 400 nM; NOT MET means Kd of 400 nM or more.

[
  {
    "sequence": "MPTVIEHLER",
    "label class": "NOT MET"
  },
  {
    "sequence": "EPIEGKVVQY",
    "label class": "NOT MET"
  },
  {
    "sequence": "TPELEEEMF",
    "label class": "NOT MET"
  },
  {
    "sequence": "LATGPITTLW",
    "label class": "MET"
  },
  {
    "sequence": "MPGTFQTTTG",
    "label class": "NOT MET"
  }
]

----------
# test target: HLA-A*31:01
# assay comment: IEDB peptide-MHC binding, purified MHC/competitive/fluorescence; filed as Kd, often an IC50 or EC50 that approximates it; bounds were set here for any values at or beyond the usual limits of such assays
# reported conditions: source organism: Pleistophora sp. LS
pKd: −log10 of the molar value.

[
  {
    "sequence": "VELQIGWTV",
    "pKd": "≤ 4.70"
  }
]

----------
# test target: HLA-B*39:01
# assay comment: IEDB peptide-MHC binding, purified MHC/competitive/fluorescence; filed as Kd, often an IC50 or EC50 that approximates it; bounds were set here for any values at or beyond the usual limits of such assays
# reported conditions: source organism: Brucella melitensis bv. 1 str. 16M
pKd: −log10 of the molar value.

[
  {
    "sequence": "AVGVVCTGL",
    "pKd": "≤ 4.70"
  }
]

----------
# test target: HLA-B*58:01
# assay comment: IEDB peptide-MHC binding, purified MHC/direct/fluorescence; filed as Kd, often an IC50 or EC50 that approximates it; bounds were set here for any values at or beyond the usual limits of such assays
# reported conditions: source organism: SARS-CoV1

[
  {
    "sequence": "LTDDMIAAY",
    "Kd [µM]": 6.94
  }
]

----------
# test target: HLA-A*24:03
# assay comment: IEDB peptide-MHC binding, purified MHC/competitive/fluorescence; filed as Kd, often an IC50 or EC50 that approximates it; bounds were set here for any values at or beyond the usual limits of such assays
# reported conditions: source organism: Escherichia coli str. K-12 substr. MG1655
pKd: −log10 of the molar value.

[
  {
    "sequence": "RYDKSAADL",
    "pKd": 6.32
  }
]

----------
# test target: HLA-A*33:01
# assay comment: IEDB peptide-MHC binding, purified MHC/competitive/radioactivity; filed as Kd, often an IC50 or EC50 that approximates it; bounds were set here for any values at or beyond the usual limits of such assays
# reported conditions: source organism: Mammarenavirus machupoense

[
  {
    "sequence": "LMAFANQIHH",
    "Kd": "≥ 70 µM"
  }
]

----------
# test target: HLA-A*69:01
# assay comment: IEDB peptide-MHC binding, purified MHC/direct/fluorescence; filed as Kd, often an IC50 or EC50 that approximates it; bounds were set here for any values at or beyond the usual limits of such assays
# reported conditions: source organism: Rickettsia conorii

[
  {
    "sequence": "IIMFDAEKL",
    "Kd (nM)": 1110
  }
]

----------
# test target: HLA-A*69:01
# assay comment: IEDB peptide-MHC binding, purified MHC/direct/fluorescence; filed as Kd, often an IC50 or EC50 that approximates it; bounds were set here for any values at or beyond the usual limits of such assays
# reported conditions: source organism: Camelpox virus M-96
Recorded Kd for the following sequences

[
  {
    "sequence": "NSNINVINY",
    "Kd": "≥ 20 µM"
  },
  {
    "sequence": "KELENEYYF",
    "Kd": "≥ 20 µM"
  }
]

----------
# test target: HLA-B*44:02
# assay comment: IEDB peptide-MHC binding, purified MHC/direct/fluorescence; filed as Kd, often an IC50 or EC50 that approximates it; bounds were set here for any values at or beyond the usual limits of such assays
# reported conditions: source organism: Yellow fever virus

[
  {
    "sequence": "GSRAYRNAL",
    "Kd": "≥ 20 µM"
  },
  {
    "sequence": "SCRVKLSAL",
    "Kd": "≥ 20 µM"
  }
]

----------
# test target: HLA-A*24:03
# assay comment: IEDB peptide-MHC binding, purified MHC/competitive/fluorescence; filed as Kd, often an IC50 or EC50 that approximates it; bounds were set here for any values at or beyond the usual limits of such assays
# reported conditions: source organism: Vibrio cholerae 2740-80
quantity: Kd

[
  {
    "sequence": "VQPWLMVDV",
    "test target": "HLA-A*24:03",
    "quantity": "Kd",
    "readout value": "≥ 20 µM"
  }
]
